Tested System: Src-YEEI (Homo sapiens)
Format: biochemical
Condition: read-out: IC50, Src-YEEI alone, ADP Quest
Quantity Measured: IC50

INSERT INTO results (compound, quantity_measured, endpoint_value) VALUES
  ('COc1ccc(N(C(=O)Oc2c(C)cccc2C)c2ccnc(Nc3ccc(N4CCN(C)CC4)cc3)n2)c(OC)c1 [WH-4-023]', 'IC50', '19 nM');

These measurements were taken from paper PMC4444405.
